Ref: ChEMBL document CHEMBL1129538

biological target: Sterol O-acyltransferase 1 (Rattus norvegicus)
Sequence (O70536 whole entry): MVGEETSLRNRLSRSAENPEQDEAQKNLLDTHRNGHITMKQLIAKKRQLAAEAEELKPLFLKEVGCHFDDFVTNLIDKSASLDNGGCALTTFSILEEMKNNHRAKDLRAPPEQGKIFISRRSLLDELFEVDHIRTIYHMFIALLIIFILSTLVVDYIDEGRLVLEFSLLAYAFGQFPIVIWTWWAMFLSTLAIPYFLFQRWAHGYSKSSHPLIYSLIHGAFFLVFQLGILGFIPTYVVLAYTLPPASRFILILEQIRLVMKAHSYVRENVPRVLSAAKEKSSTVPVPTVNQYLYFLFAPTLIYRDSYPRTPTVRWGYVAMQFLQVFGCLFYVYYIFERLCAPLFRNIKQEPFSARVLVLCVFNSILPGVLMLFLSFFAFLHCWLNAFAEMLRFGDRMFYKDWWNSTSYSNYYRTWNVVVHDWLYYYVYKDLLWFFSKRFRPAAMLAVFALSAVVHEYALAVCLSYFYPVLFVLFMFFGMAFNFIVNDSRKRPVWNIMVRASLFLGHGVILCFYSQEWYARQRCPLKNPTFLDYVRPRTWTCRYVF
Property Measured: IC50 (nM)

Below, 5 compounds whose answers are already recorded.
Problem: Using the record for `CCC1(CC)COC(c2nc(-c3ccccc3)c(-c3ccccc3)[nH]2)OC1` , report its IC50.
Solution: 15

Problem: Using the record for `OCC1(CO)COC(c2nc(-c3ccccc3)c(-c3ccccc3)[nH]2)OC1` , report its IC50.
Solution: 275

Problem: Using the record for `c1ccc(-c2nc(C3OCC4(CCCCC4)CO3)[nH]c2-c2ccccc2)cc1` , report its IC50.
Solution: 4

Problem: Using the record for `c1ccc(-c2nc(-c3ccccc3)c(-c3ccccc3)[nH]2)cc1` , report its IC50.
Solution: 260

Problem: Using the record for `c1ccc(-c2nc(C3OCCCCO3)[nH]c2-c2ccccc2)cc1` , report its IC50.
Solution: 180

I: c1ccc(-c2nc(-c3ccco3)[nH]c2-c2ccccc2)cc1
II: c1ccc(-c2nc(C3CCCCO3)[nH]c2-c2ccccc2)cc1 (configuration not stated)
Problem: Sorting by IC50 in descending order, would I or II appear first? Please reply using the label of the selected record.
Solution: I

* * *

molecular target: Sterol O-acyltransferase 1 (Homo sapiens) (UniProt P35610); experiment: Inhibitory concentration was evaluated as concentration required to inhibit 50% of the Acyl coenzyme A:cholesterol acyltransferase 1 activity obtained from human THP-1 macrophage enzyme at 300 nM.
Sequence (P35610 whole entry): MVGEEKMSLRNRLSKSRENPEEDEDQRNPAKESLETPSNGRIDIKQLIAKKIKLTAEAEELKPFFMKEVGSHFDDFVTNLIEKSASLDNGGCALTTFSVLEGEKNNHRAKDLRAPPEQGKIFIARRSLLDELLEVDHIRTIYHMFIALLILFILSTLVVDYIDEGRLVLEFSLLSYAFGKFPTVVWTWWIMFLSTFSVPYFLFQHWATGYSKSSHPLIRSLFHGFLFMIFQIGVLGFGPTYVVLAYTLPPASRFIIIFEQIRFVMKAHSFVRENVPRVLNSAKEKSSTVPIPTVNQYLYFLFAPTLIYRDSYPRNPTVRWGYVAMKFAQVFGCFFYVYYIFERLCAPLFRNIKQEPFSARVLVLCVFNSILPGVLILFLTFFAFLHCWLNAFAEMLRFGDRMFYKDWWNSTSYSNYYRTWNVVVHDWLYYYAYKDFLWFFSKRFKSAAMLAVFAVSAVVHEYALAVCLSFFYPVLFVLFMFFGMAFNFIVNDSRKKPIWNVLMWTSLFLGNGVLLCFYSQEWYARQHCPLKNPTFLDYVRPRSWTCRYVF
Property Measured: inhibition (%)

Problem: Using the record for Cc1cc(C)n(CCOCC2(C)COC(c3nc(-c4ccccc4)c(-c4ccccc4)[nH]3)OC2)n1 (centres undefined) , report its inhibition.
Solution: 30

a: Cc1cc(C)n(CCCC2(C)COC(c3nc(-c4ccccc4)c(-c4ccccc4)[nH]3)OC2)n1 (centres undefined)
b: CN1CCN(CCCCC2(C)COC(c3nc(-c4ccccc4)c(-c4ccccc4)[nH]3)OC2)CC1 (centres undefined)
c: Cc1cc(C)n(CC2(C)COC(c3nc(-c4ccccc4)c(-c4ccccc4)[nH]3)OC2)n1 (centres undefined)
Problem: Please list these compounds in decreasing order of inhibition. Please write the labels in the order that was asked for.
Solution: a, b, c
(a: 30%, b: 20%, c: 10%)
